Assay: S6 kinase pathway phospho-S6 level changes – cell-based, A549, cytoblot, luminescence, serum-stimulated, primary screen (AID 1158);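 further: serum-stimulated A549 lung adenocarcinoma cells; signal is phosphorylated S6 detected by cytoblot immunostaining with HRP secondary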
Conditions: 5 h, higher = more signal
Attribute measured: z-score
No unit in the answer, please; the number alone is enough.

Query: Tell me the measured z-score of "COCCOC(=O)N1C(=O)[C@@]2(c3cc(C#Cc4ccc(OC)cc4)ccc31)[C@H](c1ccc(OCCO)cc1)N1[C@H](c3ccccc3)[C@H](c3ccccc3)OC(=O)[C@H]1[C@@H]2C(N)=O" , please.
Result: -0.141

Query: Any idea what z-score was measured for "C=CCN1C(=O)[C@@]2(O[C@@H](CCO)[C@H]([Si](C)(C)c3ccc(OC)cc3)[C@H]2C)c2cc(NC(=O)[C@H](C)O)ccc21" ?
Result: 0.29

Query: Report z-score for "C[N+](C)(C)CCCC[C@@H]1NC(=O)[C@@H]2C[C@H](C(=O)O)[C@H](c3cccc(OCCO)c3)N2C1=O" please.
Result: 1.44

Query: Any idea what z-score was measured for C=CCC(OC(C)=O)[C@@H]1[C@@H](N(Cc2ccc(-c3cccc(C(F)(F)F)c3)o2)C(=O)c2cccc3ccccc23)c2cc(OCCCO)ccc2N1C(=O)c1ccc(-c2ccccc2)cc1 (stereo not given in full) ?
Result: -0.326

Query: Need z-score, item "COCCOC(=O)N1C(=O)[C@@]2(c3cc(C#CC4(O)CCCCCC4)ccc31)[C@H](C(=O)N1CCc3cc(OC)c(OC)cc3C1)[C@H]1C(=O)O[C@H](c3ccccc3)[C@H](c3ccccc3)N1[C@@H]2c1ccccc1OCCO"
Result: -0.0095
